Tested on: L1210 leukemia ip in BDF1 mice, survival T/C
Test: NCI In Vivo Anticancer Drug Screen. Data for tumor model L1210 Leukemia (intraperitoneal) in B6D2F1 (BDF1) mice
Assay setup: endpoint: mean survival time; dose: 12.5 mg/kg/injection; schedule: Q04DX003 (ip); vehicle: Klucel (hydroxypropylcellulose) (HPC); higher = longer survival
Inconclusive results and toxic doses are left out.

Compound: O=[N+]([O-])c1ccc(C=C2C=c3ccccc3=C2)cc1
T/C: 94 % of control
//
Compound: CC(=O)NN=C1CCC(=NNC(C)=O)CC1
T/C: 97 % of control
//
Compound: Cc1ccc(C)c(CN(C)C)c1O
T/C: 96 % of control
//
Compound: Cc1ncc(CO)c(C2NOCc3nscc32)c1O (configuration not stated)
T/C: 92 % of control
//
Compound: CC[N+]1(CN2CCCCC2)CCCCC1
T/C: 102 % of control
//
Compound: O=C(O)CCSSc1ccc([N+](=O)[O-])cc1[N+](=O)[O-]
T/C: 98 % of control
//
Compound: NNc1c(F)c(F)c(NN)c(F)c1F
T/C: 93 % of control
